The values you see were collected from PubChem BioAssay (NCI).

# Test system: PC-3 prostate
# test summary: NCI tumour cell line growth inhibition, 48 h
measured metric: TGI (µM)
One number for each entry, in µM.

molecule | measurement units | result value
Cc1c2cccc(Sc3ccccc3)c2c2c3c(cccc13)[S+](c1ccccc1)C2 (stereo unspecified) | µM | 5.71

// each molecule listed below needs its TGI
1. COC(=O)C12OCC34C(CC5C(C)=C(O)C(=O)CC5(C)C3C(O)C1O)OC(=O)C(OC(=O)C=C(C)C)C24 (stereo unspecified)
2. Cc1oc2nc[nH]c(=O)c2c1C(=O)/C=C/c1ccc(Br)cc1

Result:
0.631
15.6

---

# Test system: SNB-19 CNS
# test summary: NCI tumour cell line growth inhibition, 48 h
measured metric: TGI

molecule | result value
Nc1nc2c(ncn2C2C=CC(COS(N)(=O)=O)C2)c(=O)[nH]1 (centres undefined) | > 100 µM

// input: 5 molecules below; output: TGI for each
1. Oc1ccc(Cl)cc1-c1cc(-c2ccc(Cl)cc2)n[nH]1
2. CS(=O)(=O)c1ccc(NNc2cc(=O)[nH]c(=O)[nH]2)cc1
3. CC1(C)C2CCC(=O)C1C(OCc1ccccc1)C2 (centres undefined)
4. CC1[C@@H]2CC=C3C4CCC5Cc6nc7c(nc6C[C@@]5(C)C4CC(=O)[C@]32CO[C@@]1(O)C(O)CC(C)(C)O)CC1CCC2C3=C[C@H]4O[C@@]5(O[C@@](C)(CO)C[C@@H]5O)C(C)[C@@]4(O)[C@]3(C)[C@@H](O)CC2[C@]1(C)C7 (some centres undefined)
5. C=C[C@]1(C)C[C@@H](OC(=O)CO)[C@@]2(C)[C@H](C)CC[C@]3(CCC(=O)[C@H]32)[C@@H](C)[C@@H]1O

Result:
1: 12.1 µM; 2: > 100 µM; 3: > 100 µM; 4: 0.329 µM; 5: > 100 µM

Could I get TGI for every one of these entries?
1. Cc1nn(CN2CCN(C)CC2)c(=S)n1/N=C/c1ccc(-c2ccc(Cl)cc2Cl)o1
2. CC(C)CC(=O)[O-].N.N.N.N.N.[Co+3].[O-][Cl+3]([O-])([O-])[O-]
3. O=C1CCN(CCC(F)(F)C(F)(F)C(F)(F)C(F)(F)C(F)(F)C(F)(F)F)C(=S)N1CCC(F)(F)C(F)(F)C(F)(F)C(F)(F)C(F)(F)C(F)(F)F
4. Oc1cc(Cn2cnc3c(Cl)nc(Cl)nc32)ccc1C12CC3CC(CC(C3)C1)C2

Result:
1. > 100 µM
2. > 100 µM
3. > 100 µM
4. 31.4 µM

For every listed record, write down its TGI.
1. Cc1cnc(NC2CCOCC2)nc1-n1cnc(C(=O)N[C@H](CN)c2cc(F)cc(Cl)c2)c1
2. c1ccc(-c2nc([P+](c3ccccc3)(c3ccccc3)c3ccccc3)c(N3CCOCC3)o2)cc1
3. NC(N)=NS(=O)(=O)c1ccc(NC(=O)c2cccc3c(Nc4ccc(S(=O)(=O)N=C(N)N)cc4)c4ccccc4nc23)cc1
4. CCOC(=O)C#Cc1c(C(=O)OCC)nnn1Cc1ccc(C(F)(F)F)cc1
5. CCc1cccc(C)c1NC(=O)CCc1nnc(SC)o1
6. S=C1Cc2cc3ccccc3nc2-c2ccccc2N1
7. COc1c(O)ccc(C2=Cc3ccc(O)cc3OC2)c1OC
8. COC1OC(Cn2c(C)nc(Br)c2Br)C(O)C(O)C1O (centres undefined)

Result:
> 57.8 µM
15 µM
> 100 µM
44.8 µM
> 100 µM
> 47.4 µM
> 100 µM
> 100 µM

---

# Tested on: HCT-15 colon
# test summary: NCI tumour cell line growth inhibition, 48 h
Lab note: compare TGI against 30 µM. Equal or greater, write met. Smaller, write not met.

compound | assigned class
CC(=O)Nc1ccc(S(=O)(=O)/N=C2\C=CC(=O)c3ccccc32)cc1 | not met
Cc1ccc(-c2cc(-c3cc(-c4ccc(C)cc4C)n[nH]3)[nH]n2)c(C)c1 | met
O=c1[nH]c2c3ccncc3cc(-c3cccc(Cl)c3)c2c2cnccc12 | met
CC1(C)C2CCC(=O)C1C(OCc1ccccc1)C2 (configuration not stated) | met
Cc1nc2c(nc1C)C(=O)C1=C(C2=O)C2C=CC1CC2 | met

Problem: Check this compound for TGI at or above 30 µM: CN(C)C(=S)/N=c1\ss/c(=N\C(=S)N(C)C)n1C1CCCCC1
Result: met

---

Exercise: state measured GI50 for each of the compounds provided.
# Tested on: A498 renal
# test summary: NCI tumour cell line growth inhibition, 48 h
Where a SMILES comes first, the peptide text is derived from it. [ ]: non-standard residue; d: D form. The star is where a group is joined. ξ: configuration not given here. NMeF = CN[C@@H](Cc1ccccc1)C(=O)O; NMeN = CN[C@@H](CC(N)=O)C(=O)O; NMeV = CN[C@H](C(=O)O)C(C)C; ξNMeV = CNC(C(=O)O)C(C)C; Boc = CC(C)(C)OC(=O)*; ξNMeA = CNC(C)C(=O)O; ξV = CC(C)C(N)C(=O)O

compound | target or test system | GI50
CCOC(=O)C#Cc1c(C(=O)OCC)nnn1Cc1ccc(C(F)(F)F)cc1 | A498 renal | 16.9 µM

Below are 5 compounds. Give each one its GI50.
1. COC(=O)C(C)N(C)C(=O)[C@H](CC(N)=O)N(C)C(=O)[C@@H]1CCCN1C(=O)[C@H](C(C)C)N(C)C(=O)C(C(C)C)N(C)C(=O)[C@H](Cc1ccccc1)N(C)C(=O)C(NC(=O)OC(C)(C)C)C(C)C (stereo partly specified) (Boc-[ξV][NMeF][ξNMeV][NMeV]P[NMeN][ξNMeA]-OMe)
2. O=C(Nc1ccc(-n2ccc3c(NC(=O)c4ccccc4)ncnc32)cc1)c1ccc(Cl)c(C(F)(F)F)c1
3. CC(=O)O[C@H]1[C@@H]2OC(=O)C3(CC3)C2C[C@H]2O[C@]2(C)CC/C=C(\C)CCC[C@@H]1C (stereo partly specified)
4. C=C1C(C(O)C[C@H](C)C2O[C@@]3(CCCCO3)CCC2C)O[C@@H]2CCC3(CCC(/C=C/[C@@H](C)C4CC(C)=CC5(O4)O[C@H](C[C@](C)(O)C(=O)O)CCC5O)O3)OC2[C@@H]1O (stereo partly specified)
5. C/C(=N\NC(=O)c1ccccc1N)c1ccccc1O

Result:
21.9 µM
13 µM
27.4 µM
0.0315 µM
10.4 µM

---

# Tested on: HCT-15 colon
# test summary: NCI tumour cell line growth inhibition, 48 h; in the data active = GI50 below about 0.43 µM; inactive = the rest
A correct response names exactly one class from True for active, False for inactive

Problem: Test call for this molecule, please: c1ccc(-c2cccc(-c3ccccn3)n2)nc1
Result: True

Problem: Status in this test for O=C(c1cccs1)c1c(C(F)(F)F)n([O-])c2ccc(Cl)cc2[n+]1=O ?
Result: True

---

Kindly supply the reported TGI values for the records listed here.
# Test system: NCI-H226 lung
# test summary: NCI tumour cell line growth inhibition, 48 h

compound | target or test system | TGI
O=C1CC2(CCC(O)(c3ccco3)C(C(=O)c3ccco3)C2)C(=O)c2ccccc2N1 (centres undefined) | NCI-H226 lung | > 100 µM

Parameters: items (list). Returns: TGI for each item.
1. CC(=O)O[C@H]1C(=O)[C@@]2(C)[C@H]([C@H](OC(=O)C3CCCCC3)[C@]3(O)C[C@H](OC(=O)[C@H](O)[C@@H](NC(=O)OC(C)(C)C)c4ccccc4)C(C)=C1C3(C)C)[C@]1(OC(C)=O)CO[C@@H]1C[C@@H]2O
2. NC1CC(=O)c2ccccc21 (centres undefined)
3. CC1C=CC(O)[C@]2(CO)CC3(CCC12)OCCO3 (some centres undefined)
4. c1ccc(-c2cn3nc(N4CCOCC4)sc3n2)cc1

Result:
["> 12.5 µM", "> 100 µM", "> 100 µM", "> 100 µM"]

Need TGI for each of these compounds.
1. N=C(N)c1ccc(-c2ccc(-c3cccs3)o2)cc1
2. CC(=O)O[C@H]1[C@@H]2OC(=O)C3(CC3)C2C[C@H]2O[C@]2(C)CC/C=C(\C)CCC[C@@H]1C (some centres undefined)
3. O=C1CC2C=CC1C2CO (centres undefined)
4. C=C(C)[C@@H]1CC[C@]2(C)[C@H](CC[C@@H]3[C@@H]([C@@](C)(O)CCC=C(C)C)CC[C@]32C)[C@@]1(C)CCC(=O)N1CCN(C)CC1
5. CNC[C@@H](NC(=O)c1ccc(-c2nc([C@H]3CC[C@H](O)[C@@H](F)C3)cnc2N)cc1F)c1cc(F)cc(Br)c1

Result:
1: 5.13 µM; 2: 66.5 µM; 3: > 100 µM; 4: 31.7 µM; 5: 35.3 µM

Batch request: TGI for each of the following compounds.
1. C#CCN(Cc1ccc2nc(-c3ccccc3)c(Cl)nc2c1)c1cc(OC)c(OC)c(OC)c1
2. O=[N+]([O-])c1ccc2c3c1[C@H]1O[C@H]1c1cccc(c1-3)[C@@H]1O[C@H]21

Result:
1: > 100 µM; 2: > 100 µM

Lab note: each compound below needs its TGI filled in.
1. COc1cccc(C=O)c1[O-].COc1cccc(C=O)c1[O-].[Cu+2]
2. NC(Cc1cnc(I)[nH]1)C(=O)O (centres undefined)

Result:
1: 68.2 µM; 2: > 100 µM
